- Assayed target: EGFR(L858R/T790M) (Homo sapiens, UniProt P00533, L858R/T790M)
- Construct: purchased from Carna (GST-a.a. 669-1210)
- Sequence (P00533 669-1210 T790M/L858R): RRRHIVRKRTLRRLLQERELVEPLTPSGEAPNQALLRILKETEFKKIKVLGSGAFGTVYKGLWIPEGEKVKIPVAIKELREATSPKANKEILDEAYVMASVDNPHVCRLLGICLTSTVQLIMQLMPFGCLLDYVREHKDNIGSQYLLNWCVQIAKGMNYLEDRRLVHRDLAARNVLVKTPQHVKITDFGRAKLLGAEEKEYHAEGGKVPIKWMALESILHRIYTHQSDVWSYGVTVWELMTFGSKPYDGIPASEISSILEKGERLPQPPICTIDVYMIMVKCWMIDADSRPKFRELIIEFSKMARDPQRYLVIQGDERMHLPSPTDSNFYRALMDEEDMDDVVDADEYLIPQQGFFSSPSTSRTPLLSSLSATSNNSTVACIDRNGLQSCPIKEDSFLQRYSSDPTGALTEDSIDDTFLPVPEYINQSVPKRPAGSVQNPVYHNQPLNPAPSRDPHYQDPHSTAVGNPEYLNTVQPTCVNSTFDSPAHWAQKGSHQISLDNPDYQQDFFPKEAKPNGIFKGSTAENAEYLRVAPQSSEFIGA
- Protocol text: EGFR biochemical assay (HTRF), IC50 determinations
- Test parameters: EGFR (L858R/T790M) with 90 min pre-incubation; read-out: IC50 (μM) Column B
Measurement label: IC50 (µM)

# Compound, Measurement label, Measured value
measured = [
    ("C/C=C/C(=O)N1CCCC[C@@H](n2c(NC(=O)c3ccnc(C)c3)nc3cc(CN4CCCC4)cc(C)c32)C1", "IC50", 0.005),
    ("Cc1cc(C(=O)Nc2nc3cccc(Cl)c3n2[C@@H]2CCCCN(C(=O)C3=CCCN(C)C3)C2)ccn1", "IC50", 0.36),
    ("C/C=C/C(=O)N1CCCC[C@@H](n2c(NC(=O)c3ccnc(C)c3)nc3cc(CN4CC[C@@H](OC)C4)cc(C)c32)C1", "IC50", 0.005),
    ("C=CC(=O)N1CCCC(n2c(NC(=O)c3cccc(C(F)(F)F)c3)nc3c2CN(C)CC3)C1 (centres unmarked)", "IC50", 0.285),
    ("Cc1cccc2nc(NC(=O)c3cnccn3)n(C3CCCCN(C(=O)/C=C/CN(C)C)C3)c12 (centres unmarked)", "IC50", 0.006),
]

(A) Cc1cccc2nc(NC(=O)c3ccc(C(F)(F)F)nc3)n(C3CCCCN(C(=O)/C=C/CN(C)C)C3)c12 (centres unmarked)
(B) C=CC(=O)N1CCC(n2c(NC(=O)c3cccc(C(F)(F)F)c3)nc3cc(C)ccc32)C1 (centres unmarked)
Of A versus B , which is the one with smaller reported IC50? Returns: label corresponding to the selected item.
A
(A: 0.005 µM, B: 0.058 µM)

###

- Assayed target: H1975 (EGFR L858/T790M) (Homo sapiens, UniProt P00533, L858R/T790M)
- Sequence (P00533 25-1210 T790M/L858R): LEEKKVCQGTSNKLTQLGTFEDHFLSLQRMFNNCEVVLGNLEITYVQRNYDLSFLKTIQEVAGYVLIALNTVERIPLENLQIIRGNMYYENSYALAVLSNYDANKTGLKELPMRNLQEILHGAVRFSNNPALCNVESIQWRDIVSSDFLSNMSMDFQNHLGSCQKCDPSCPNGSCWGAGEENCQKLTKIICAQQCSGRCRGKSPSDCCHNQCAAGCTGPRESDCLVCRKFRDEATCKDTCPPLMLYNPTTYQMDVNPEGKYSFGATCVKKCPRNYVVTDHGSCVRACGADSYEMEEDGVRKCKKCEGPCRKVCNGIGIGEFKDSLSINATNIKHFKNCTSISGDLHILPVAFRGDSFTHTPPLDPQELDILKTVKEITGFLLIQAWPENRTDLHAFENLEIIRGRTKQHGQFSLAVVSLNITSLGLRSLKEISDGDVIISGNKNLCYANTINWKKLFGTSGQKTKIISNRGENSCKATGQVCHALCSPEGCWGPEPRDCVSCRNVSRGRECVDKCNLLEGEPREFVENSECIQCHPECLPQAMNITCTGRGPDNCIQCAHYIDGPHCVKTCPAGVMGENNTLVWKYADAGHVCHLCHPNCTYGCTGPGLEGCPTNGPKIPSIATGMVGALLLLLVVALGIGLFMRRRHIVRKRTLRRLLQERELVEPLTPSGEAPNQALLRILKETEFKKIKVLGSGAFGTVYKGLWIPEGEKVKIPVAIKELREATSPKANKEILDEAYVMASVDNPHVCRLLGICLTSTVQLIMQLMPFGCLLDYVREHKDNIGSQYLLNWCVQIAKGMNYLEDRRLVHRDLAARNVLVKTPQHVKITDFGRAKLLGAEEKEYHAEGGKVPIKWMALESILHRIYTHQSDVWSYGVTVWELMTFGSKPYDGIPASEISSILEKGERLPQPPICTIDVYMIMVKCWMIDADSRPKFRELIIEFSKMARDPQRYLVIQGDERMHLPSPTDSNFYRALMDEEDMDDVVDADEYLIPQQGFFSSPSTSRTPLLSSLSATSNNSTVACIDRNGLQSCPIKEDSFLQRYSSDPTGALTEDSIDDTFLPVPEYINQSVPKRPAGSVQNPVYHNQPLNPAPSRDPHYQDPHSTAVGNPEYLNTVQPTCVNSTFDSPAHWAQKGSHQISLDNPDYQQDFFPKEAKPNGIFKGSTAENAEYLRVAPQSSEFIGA
- Protocol text: EGFR target modulation in H1975 cell line (phospho-EGFR Y1173 ELISA)
Measurement label: IC50 (nM)

# Molecule, Assayed target, Measurement label, Measured value
records = [
    ("Cc1cc(C(=O)Nc2nc3cccc(Cl)c3n2[C@@H]2CCCCN(C(=O)/C=C/CN3CC[C@H](F)C3)C2)ccn1", "H1975 (EGFR L858/T790M) (Homo sapiens, UniProt P00533, L858R/T790M)", "IC50", 9),
    ("Cc1cc(C(=O)Nc2nc3cccc(C)c3n2[C@@H]2CCCCN(C(=O)/C=C/CN(C)C)C2)cnn1", "H1975 (EGFR L858/T790M) (Homo sapiens, UniProt P00533, L858R/T790M)", "IC50", 10),
    ("C=CC(=O)N1CCCC[C@@H](n2c(NC(=O)c3ccnc(C)c3)nc3cc(CN4CCC4)cc(C)c32)C1", "H1975 (EGFR L858/T790M) (Homo sapiens, UniProt P00533, L858R/T790M)", "IC50", 1),
    ("CN(C)C/C=C/C(=O)N1CCCC[C@@H](n2c(NC(=O)c3ccnnc3)nc3cccc(Cl)c32)C1", "H1975 (EGFR L858/T790M) (Homo sapiens, UniProt P00533, L858R/T790M)", "IC50", 10),
    ("COc1cc2nc(NC(=O)c3cc(C)nc(C)c3)n([C@@H]3CCCCN(C(=O)/C=C/CN(C)C)C3)c2cc1Cl", "H1975 (EGFR L858/T790M) (Homo sapiens, UniProt P00533, L858R/T790M)", "IC50", 234),
    ("CO[C@@H]1CCN(C/C=C/C(=O)N2CCCC[C@@H](n3c(NC(=O)c4ccnc(C)c4)nc4cccc(Cl)c43)C2)C1", "H1975 (EGFR L858/T790M) (Homo sapiens, UniProt P00533, L858R/T790M)", "IC50", 6),
    ("COc1ccc2nc(NC(=O)c3ccnc(C)c3)n([C@@H]3CCCCN(C(=O)/C=C/CN(C)C)C3)c2c1Cl", "H1975 (EGFR L858/T790M) (Homo sapiens, UniProt P00533, L858R/T790M)", "IC50", 4),
    ("C=CC(=O)N1CCCC[C@@H](n2c(NC(=O)c3cc(C)nc(C)c3)nc3cc(CN4CCN(C(C)=O)CC4)cc(C)c32)C1", "H1975 (EGFR L858/T790M) (Homo sapiens, UniProt P00533, L858R/T790M)", "IC50", 1),
]

(a) C=CC(=O)N1CCN(C(=O)OC(C)(C)C)CC(n2c(NC(=O)c3ccnc(C)c3)nc3cccc(Cl)c32)C1 (stereo not drawn)
(b) C=CC(=O)N1CCC[C@@H](n2c(NC(=O)c3cccc(C(F)(F)F)c3)nc3cc(CN4CCCCC4)ccc32)C1
(c) Cc1cc(C(=O)Nc2nc3cccc(C)c3n2[C@@H]2CCCCN(C(=O)/C=C/CN3CC[C@@H](F)C3)C2)ccn1
(d) C=CC(=O)N1CCC[C@@H](n2c(NC(=O)c3ccnc(C)c3)nc3cccc(C)c32)C1
Arrange these 4 molecules in increasing order of IC50. Please express your ranking as an ordered list of the labels.
c, d, a, b

(I) C=CC(=O)N1CCCCC(n2c(NC(=O)c3cccc(C(F)(F)F)c3)nc3cc(C)ccc32)C1 (stereo not drawn)
(II) C=CC(=O)N1CCCC[C@@H](n2c(NC(=O)c3cc(C)nc(C)c3)nc3cc(CN4CCN(C)C(=O)C4)cc(C)c32)C1
Decide: I or II , by lowest recorded IC50. Please identify the chosen entry by its label.
II
